Molecular target: human B1R receptor (hB1R) (Homo sapiens, UniProt P46663)
Construct: host or cells: CHO K1 cells
Sequence (P46663 1-353): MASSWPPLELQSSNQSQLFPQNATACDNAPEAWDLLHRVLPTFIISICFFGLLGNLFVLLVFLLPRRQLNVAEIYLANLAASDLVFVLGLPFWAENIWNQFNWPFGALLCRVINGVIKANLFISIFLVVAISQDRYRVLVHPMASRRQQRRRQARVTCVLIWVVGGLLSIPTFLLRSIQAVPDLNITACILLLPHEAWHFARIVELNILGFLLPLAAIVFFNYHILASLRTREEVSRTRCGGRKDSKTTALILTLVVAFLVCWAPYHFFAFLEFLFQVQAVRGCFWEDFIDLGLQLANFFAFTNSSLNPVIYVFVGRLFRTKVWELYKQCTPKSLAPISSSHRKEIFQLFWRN
Assay: FLIPR Ca2+ assay on human bradykinin 1 receptor (CHO K1 hB1R cells)
Format: cell-based
Details: test substance 10 μM; CHO K1 cells with human B1R gene; agonist Lys-Des-Arg9-bradykinin 0.5 nM; compared to maximum achievable inhibition
QUANTITY_NAME: inhibition at 10 µM (%)

Solved entries:
In [3]: df
Out[3]:
                                   molecule  unit_name  value_measured
0  COc1cc(C)c(S(=O)(=O)N(C)CCOCC(=O)N2CCn3c(CN4CCCC4)ccc3C2)c(C)c1 [Example 11]          %             103
1  CCC1c2cccn2CCN1C(=O)C[C@@H](NS(=O)(=O)c1ccc2ccccc2c1)c1ccccc1 (stereo partly shown) [Example 162]          %              57
2  COc1c(C)cc(S(=O)(=O)N(C)CCOCC(=O)N2CCn3c(CN4CCCC4)ccc3C2c2ccccc2)c(C)c1C (stereo not shown) [Example 106]          %              99
3  CCC1c2cccn2CCN1C(=O)COCCN(Cc1ccccc1)S(=O)(=O)c1c(C)cc(OC)cc1C (stereo not shown) [Example 132]          %             100
4  CCC1c2ccc(CN(C)C)n2CCN1C(=O)COCCN(CC(C)C)S(=O)(=O)c1c(C)cc(OC)c(C)c1C (stereo not shown) [Example 99]          %             102

[a] COc1c(C)cc(S(=O)(=O)N(C)CCOCC(=O)N2CCn3cccc3C2c2ccc(C)c(C)c2)c(C)c1C (stereo not shown) [Example 34]
[b] CCC1c2ccc(CN(C)C)n2CCN1C(=O)COCCN(Cc1ccccc1)S(=O)(=O)c1c(C)cc(OC)cc1C (stereo not shown) [Example 131]
Hi! Which is lower in terms of inhibition at 10 µM, the first one a or the second one b ? Please indicate the selected item by its label.
a

###

Target: B1R receptor of rats (rB1R) (Rattus norvegicus)
Construct: host or cells: CHO K1 cells
Sequence (P97583 1-337): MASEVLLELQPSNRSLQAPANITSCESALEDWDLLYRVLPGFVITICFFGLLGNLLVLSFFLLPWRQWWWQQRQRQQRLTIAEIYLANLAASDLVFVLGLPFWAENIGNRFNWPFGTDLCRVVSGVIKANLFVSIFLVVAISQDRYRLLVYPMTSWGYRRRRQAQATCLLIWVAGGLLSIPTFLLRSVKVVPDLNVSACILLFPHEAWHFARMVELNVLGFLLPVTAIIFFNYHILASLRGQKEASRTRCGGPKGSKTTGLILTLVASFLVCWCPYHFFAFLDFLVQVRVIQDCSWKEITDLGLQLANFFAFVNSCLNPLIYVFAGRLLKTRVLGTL
Assay: FLIPR Ca2+ assay on rat bradykinin 1 receptor (CHO K1 rB1R cells)
Assay type: cell-based
Conditions: test substance 10 μM; CHO K1 cells with B1R gene of rats; agonist Des-Arg9-bradykinin 100 nM; compared to maximum achievable inhibition
QUANTITY_NAME: inhibition at 10 µM (%)

[A] COc1cc(C)c(S(=O)(=O)N(CCOCC(=O)N2CCn3cccc3C2c2ccccc2)Cc2ccccc2)c(C)c1 (centres unmarked)
[B] COc1cc(C)c(S(=O)(=O)N(CCOCC(=O)N2CCn3c(CN(C)C)ccc3C2CCc2ccccc2)Cc2ccccc2)c(C)c1C (centres unmarked)
Higher inhibition at 10 µM between A and B ? Identify your pick by its label.
A
(A: 98%, B: 54%)

[I] COc1ccc(C2c3cccn3CCN2C(=O)COCCN(C)S(=O)(=O)c2cc(C)c(OC)c(C)c2C)cc1 (centres unmarked)
[II] Cc1cc(C)c(S(=O)(=O)N(C)CCOCC(=O)N2CCn3cccc3C2c2ccccc2)c(C)c1 (centres unmarked)
Please tell me which of the two, I or II , has the higher reported inhibition at 10 µM value. Reply with the label of the item you choose.
II

[I] O=C(CC(NS(=O)(=O)c1ccc2ccccc2c1)c1ccccc1)N1CCn2c(Cc3cccnc3)ccc2C1 (centres unmarked)
[II] COc1c(C)cc(S(=O)(=O)N(C)CCOCC(=O)N2CCn3cccc3C2c2cccc(F)c2)c(C)c1C (centres unmarked)
Name the one with the greater inhibition at 10 µM value, either I or II as given. Write down the label of the entry you select.
I

###

Target: B1R receptor of rats (rB1R) (Rattus norvegicus, UniProt P97583)
Construct: host or cells: CHO K1 cells
Sequence (P97583 1-337): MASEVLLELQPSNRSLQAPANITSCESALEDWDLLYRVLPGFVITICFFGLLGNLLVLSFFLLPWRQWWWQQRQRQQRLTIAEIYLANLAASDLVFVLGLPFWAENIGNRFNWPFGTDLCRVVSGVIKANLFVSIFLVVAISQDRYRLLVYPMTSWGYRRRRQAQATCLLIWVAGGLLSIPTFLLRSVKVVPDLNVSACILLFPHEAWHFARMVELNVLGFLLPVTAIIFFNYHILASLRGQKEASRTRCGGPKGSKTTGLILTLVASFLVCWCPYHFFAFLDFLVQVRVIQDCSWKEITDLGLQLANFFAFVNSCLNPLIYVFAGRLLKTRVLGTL
Experiment: FLIPR Ca2+ assay on rat bradykinin 1 receptor (CHO K1 rB1R cells)
Format: cell-based
Conditions: test substance 10 μM; CHO K1 cells with B1R gene of rats; agonist Des-Arg9-bradykinin 100 nM; compared to maximum achievable inhibition
QUANTITY_NAME: inhibition at 10 µM (%)

Example entries begin here.
>>> df
                                   compound        quantity_name  unit_name  value_measured
0  COc1cc(C)c(S(=O)(=O)N(C)CCOCC(=O)N2CCn3c(CN4CCCCC4)ccc3C2c2ccccc2)c(C)c1 (centres unmarked)  inhibition at 10 µM          %             102
1  COc1cccc(C2c3cccn3CCN2C(=O)COCCN(CC(C)C)S(=O)(=O)c2c(C)cc(OC)c(C)c2C)c1 (centres unmarked)  inhibition at 10 µM          %              99
2  Cc1cc(C)c(S(=O)(=O)N(C)CCOCC(=O)N2CCn3cccc3C2c2ccc(C(F)(F)F)cc2F)c(C)c1 (centres unmarked)  inhibition at 10 µM          %              53
3  CCCCC1c2ccc(CN(C)C)n2CCN1C(=O)COCCN(CC(C)C)S(=O)(=O)c1c(C)cc(OC)c(C)c1C (centres unmarked)  inhibition at 10 µM          %             102
4  COc1cc(C)c(S(=O)(=O)N(CCOCC(=O)N2CCn3c(CN(C)C)ccc3C2c2cccs2)CC(C)C)c(C)c1C (centres unmarked)  inhibition at 10 µM          %             102
5  COc1cc(C)c(S(=O)(=O)N(CCOCC(=O)N2CCn3cccc3C2C(C)C)CC(C)C)c(C)c1C (centres unmarked)  inhibition at 10 µM          %             102

[I] CCC1c2cccn2CCN1C(=O)C[C@@H](NS(=O)(=O)c1ccc2ccccc2c1)c1ccccc1 (some centres unmarked)
[II] COc1c(C)cc(S(=O)(=O)N(C)CCOCC(=O)N2CCn3cccc3C2c2ccc(C)c(C)c2)c(C)c1C (centres unmarked)
Record comparison, field inhibition at 10 µM: mark the lower of I and II . Returns: label corresponding to the selected item.
II
(II: 42%, I: 98%)

###

Target: B1R receptor of rats (rB1R) (Rattus norvegicus, UniProt P97583)
Construct: host or cells: CHO K1 cells
Sequence (P97583 1-337): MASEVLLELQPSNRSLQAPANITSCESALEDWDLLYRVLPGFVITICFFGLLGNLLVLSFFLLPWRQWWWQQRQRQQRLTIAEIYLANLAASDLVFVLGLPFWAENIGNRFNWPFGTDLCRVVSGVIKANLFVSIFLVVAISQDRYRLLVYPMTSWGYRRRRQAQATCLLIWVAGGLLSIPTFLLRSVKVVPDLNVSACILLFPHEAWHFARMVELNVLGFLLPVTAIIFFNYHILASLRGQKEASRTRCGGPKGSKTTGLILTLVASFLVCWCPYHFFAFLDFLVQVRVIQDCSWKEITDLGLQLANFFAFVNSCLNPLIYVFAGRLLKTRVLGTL
Assay: FLIPR Ca2+ assay on rat bradykinin 1 receptor (CHO K1 rB1R cells)
Assay type: cell-based
Conditions: test substance 10 μM; CHO K1 cells with B1R gene of rats; agonist Des-Arg9-bradykinin 100 nM; compared to maximum achievable inhibition
QUANTITY_NAME: inhibition at 10 µM (%)

Consider the reported inhibition at 10 µM for these molecules:
                                   molecule  unit_name  value_measured
0  COc1cc(C)c(S(=O)(=O)N(CCOCC(=O)N2CCn3c(CN4CCCCC4)ccc3C2c2ccccc2)CC(C)C)c(C)c1C (stereo not drawn) [Example 93]          %             102
1  COc1cc(C)c(S(=O)(=O)N(C)CCOCC(=O)N2CCn3cccc3C2c2ccc(C)c(C)c2)c(C)c1 (stereo not drawn) [Example 58]          %              97
2  CCC1c2cccn2CCN1C(=O)COCCN(C)S(=O)(=O)c1c(C)cc(OC)cc1C (stereo not drawn) [Example 135]          %             102

[1] COc1cc(C)c(S(=O)(=O)N(C)CCOCC(=O)N2CCn3cccc3C2C(C)(C)C)c(C)c1 (stereo not drawn) [Example 52]
[2] COc1cccc(C2c3cccn3CCN2C(=O)COCCN(C)S(=O)(=O)c2cc(C)c(OC)c(C)c2C)c1 (stereo not drawn) [Example 38]
Hey, between 1 and 2 which has a smaller measured inhibition at 10 µM? Refer to your chosen entry by its label in the reply.
2
(2: 43%, 1: 98%)
